# Tested on: up to 32 different microorganisms
# assay_explanation: in vitro antibacterial activity (MIC), agar dilution on Brain Heart Infusion (BHI) agar with Steers replicator
# Assay type: cell-based
# condition_parameters: Streptococcus Pneumonia 5649 (code ZZA); unit assumed
Listing of entries alongside the reported MIC.
Report the figure along with its unit, number first.

CC[C@H]1OC(=O)[C@H](C)C(=O)[C@H](C)[C@@H](O[C@@H]2O[C@H](C)C[C@H](N(C)C)[C@H]2O)[C@@](C)(OCCCc2cnc3ccccc3c2)C[C@@H](C)C2=NCCN3C(=O)O[C@@]1(C)[C@H]3[C@H]2C [Example 171]    1 µg/mL
CC[C@H]1OC(=O)[C@H](C)C(=O)[C@H](C)[C@@H](O[C@@H]2O[C@H](C)C[C@H](N(C)C)[C@H]2O)[C@@](C)(OCC=NO)C[C@@H](C)C(=O)[C@H](C)[C@@H](O)[C@]1(C)O [Example 5]    16 µg/mL
CCC1OC(=O)C(C)C(=O)C(C)C(OC2OC(C)CC(N(C)C)C2O)C(C)(OCC=Cc2cccc3cccnc23)CC(C)C(=O)C(C)C2NC(=O)OC12C (centres unmarked) [Example 189, R is —CH2CH-(8-quinolyl)]    0.5 µg/mL
CCC1OC(=O)C(C)C(=O)C(C)C(OC2OC(C)CC(N(C)C)C2O)C(C)(OCC=Cc2ccc3[nH]ccc3c2)CC(C)C(=O)C(C)C2NC(=O)OC12C (centres unmarked) [Example 190, R is —CH2CH═CH-(5-indolyl)]    0.5 µg/mL

Suppose we examine the compound CCC1OC(=O)C(C)C(=O)C(C)C(OC2OC(C)CC(N(C)C)C2O)C(C)(OCC=Cc2cnc3ccccc3c2)CC(C)C(=O)C(C)C2N(CCN(C)C)C(=O)OC12C (centres unmarked) [Example 182] ; what MIC value has been reported?
2 µg/mL

====

MIC by entry:
# System: up to 32 different microorganisms
# assay_explanation: in vitro antibacterial activity (MIC), agar dilution on Brain Heart Infusion (BHI) agar with Steers replicator
# Format: cell-based
# condition_parameters: Streptococcus agalactiae CMX 508 (code KK); unit assumed

CC[C@H]1OC(=O)[C@H](C)C(=O)[C@H](C)[C@@H](O[C@@H]2O[C@H](C)C[C@H](N(C)C)[C@H]2O)[C@@](C)(OCc2ccc3ccccc3c2)C[C@@H](C)C(=O)[C@H](C)[C@@H](O)[C@]1(C)O    0.78 µg/mL
CC[C@H]1OC(=O)[C@H](C)C(=O)[C@H](C)[C@@H](O[C@@H]2O[C@H](C)C[C@H](N(C)C)[C@H]2O)[C@@](C)(OCCNCc2ccncc2)C[C@@H](C)C(=O)[C@H](C)[C@@H](O)[C@]1(C)O    0.78 µg/mL
C=CCO[C@@]1(C)C[C@@H](C)C(=O)[C@H](C)[C@H]2N(C)C(=O)O[C@]2(C)[C@@H](CC)OC(=O)[C@H](C)C(=O)[C@H](C)[C@H]1O[C@@H]1O[C@H](C)C[C@H](N(C)C)[C@H]1O    0.39 µg/mL
CC[C@H]1OC(=O)[C@H](C)C(=O)[C@H](C)[C@@H](O[C@@H]2O[C@H](C)C[C@H](N(C)C)[C@H]2O)[C@@](C)(OCCCc2ccccc2)C[C@@H](C)C(=O)[C@H](C)[C@H]2OC(=O)O[C@@]21C    0.05 µg/mL

Hi! What's the reported MIC for CCC1OC(=O)C(C)C(=O)C(C)C(OC2OC(C)CC(N(C)C)C2O)C(C)(OCC=Cc2cccc([N+](=O)[O-])c2)CC(C)C(=O)C(C)C2NC(=O)OC12C (stereo not drawn) on up to 32 different microorganisms?
0.01 µg/mL

Recall the recorded MIC for CCC1OC(=O)C(C)C(=O)C(C)C(OC2OC(C)CC(N(C)C)C2O)C(C)(OCC=Cc2ccc3[nH]ccc3c2)CC(C)C(=O)C(C)C2NC(=O)OC12C (stereo not drawn) with up to 32 different microorganisms and state it.
≤ 0.005 µg/mL

Test system up to 32 different microorganisms; read-out MIC; what value for CCC1OC(=O)C(C)C(=O)C(C)C(OC2OC(C)CC(N(C)C)C2O)C(C)(OCC=Cc2cnc3ccccc3c2)CC(C)C(=O)C(C)C2N(CC=Cc3cnc4ccccc4c3)C(=O)OC12C (stereo not drawn) ?
0.1 µg/mL

Field: MIC (up to 32 different microorganisms). Entry: `CC[C@H]1OC(=O)[C@H](C)C(=O)[C@H](C)[C@@H](O[C@@H]2O[C@H](C)C[C@H](N(C)C)[C@H]2O)[C@@](C)(OCCNCCc2ccccc2)C[C@@H](C)C(=O)[C@H](C)[C@@H](O)[C@]1(C)O`
1.56 µg/mL

Report MIC for `CC[C@H]1OC(=O)[C@H](C)C(=O)[C@H](C)[C@@H](O[C@@H]2O[C@H](C)C[C@H](N(C)C)[C@H]2O)[C@@](C)(OCC=Cc2cnc3ccccc3c2)C[C@@H](C)C(=O)[C@H](C)[C@H]2NC(=O)O[C@@]21C` tested on up to 32 different microorganisms.
0.01 µg/mL

====

# Tested on: up to 32 different microorganisms
# assay_explanation: in vitro antibacterial activity (MIC), agar dilution on Brain Heart Infusion (BHI) agar with Steers replicator
# Format: cell-based
# condition_parameters: Escherichia coli JUHL (code QQ); unit assumed
# maps each entry to its MIC
Give just the numeric value; µg/mL need not be written.

Request body: readout MIC, system up to 32 different microorganisms, query CCC1OC(=O)C(C)C(=O)C(C)C(OC2OC(C)CC(N(C)C)C2O)C(C)(OCC=Cc2ccc3[nH]ccc3c2)CC(C)C(=O)C(C)C2NC(=O)OC12C (stereo not shown) [Example 190, R is —CH2CH═CH-(5-indolyl)] . Return the value.
100

Request body: readout MIC, system up to 32 different microorganisms, query CCC1OC(=O)C(C)C(=O)C(C)C(OC2OC(C)CC(N(C)C)C2O)C(C)(OCC=Cc2ccc3nc(C)ccc3c2)CC(C)C(=O)C(C)C2NC(=O)OC12C (stereo not shown) [Example 197, R is —CH2CH═CH-(2-methyl-6-quinolyl)] . Return the value.
100

Give MIC (up to 32 different microorganisms) of the following molecule: CCC1OC(=O)C(C)C(=O)C(C)C(OC2OC(C)CC(N(C)C)C2O)C(C)(OCC=Cc2cnc3ccc([N+](=O)[O-])cc3c2)CC(C)C(=O)C(C)C2NC(=O)OC12C (stereo not shown) [Example 195, R is —CH2CH═CH-(6-nitroquinolyl)]
50

====

Quick reference for MIC among some molecules
# Tested on: up to 32 different microorganisms
# assay_explanation: in vitro antibacterial activity (MIC), agar dilution on Brain Heart Infusion (BHI) agar with Steers replicator
# Assay type: cell-based
# condition_parameters: organism code CC; unit assumed

Field: example entries. Status: answers known.
CC[C@H]1OC(=O)[C@H](C)C(=O)[C@H](C)[C@@H](O[C@@H]2O[C@H](C)C[C@H](N(C)C)[C@H]2O)[C@@](C)(OCC=NNC(=O)c2ccccc2)C[C@@H](C)C(=O)[C@H](C)[C@H]2NC(=O)O[C@@]21C    > 100 mg/L
CC[C@H]1OC(=O)[C@H](C)C(=O)[C@H](C)[C@@H](O[C@@H]2O[C@H](C)C[C@H](N(C)C)[C@H]2O)[C@@](C)(OCC=Cc2ccc3ncc(Br)cc3c2)C[C@@H](C)C(=O)[C@H](C)[C@H]2NC(=O)O[C@@]21C    100 mg/L
CCC1OC(=O)C(C)C(=O)C(C)C(OC2OC(C)CC(N(C)C)C2O)C(C)(OCC=Cc2cnc3ccc(N)cc3c2)CC(C)C(=O)C(C)C2NC(=O)OC12C (stereo not shown)    > 100 mg/L
CC[C@H]1OC(=O)[C@H](C)C(=O)[C@H](C)[C@@H](O[C@@H]2O[C@H](C)C[C@H](N(C)C)[C@H]2O)[C@@](C)(OCC2COC(C)(C)O2)C[C@@H](C)C(=O)[C@H](C)[C@H]2NC(=O)O[C@@]21C (stereo partly shown)    > 100 mg/L
CCC1OC(=O)C(C)C(=O)C(C)C(OC2OC(C)CC(N(C)C)C2O)C(C)(OCC=Cc2ccc(-c3ccon3)s2)CC(C)C(=O)C(C)C2NC(=O)OC12C (stereo not shown)    > 100 mg/L

May I ask what MIC has been recorded for `CC[C@H]1OC(=O)[C@H](C)C(=O)[C@H](C)[C@@H](O[C@@H]2O[C@H](C)C[C@H](N(C)C)[C@H]2O)[C@@](C)(OCCNCCCc2ccccc2)C[C@@H](C)C(=O)[C@H](C)[C@H]2NC(=O)O[C@@]21C` ?
> 100 mg/L

Fill blank: measured MIC of the molecule CCC1OC(=O)C(C)C(=O)C(C)C(OC2OC(C)CC(N(C)C)C2O)C(C)(OCC=Cc2cnc3c([N+](=O)[O-])cccc3c2)CC(C)C(=O)C(C)C2NC(=O)OC12C (stereo not shown) is ____.
> 100 mg/L
